# Tested on: Amaranthus retoflexus (AMARE)
# method_description: Post-emergence test, herbicidal damage
# Assay type: in vivo
# Design: key: 5=81-100%; 4=61-80%; 3=41-60%; 2=21-40%; 1=1-20%; 0=no damage to the plant; -=not tested
# cond: sprayed after 8 days cultivation, 1000 g/ha unless otherwise stated, evaluated after 13 days, five-point scale
Each record here notes measured percentage damage caused to the plant, AMARE.

Below are worked cases with known answers.
{"chemical_structure": "Cc1[nH]c(=O)c(C(=O)O)c(-c2ccc(Cl)c(Cl)c2)c1Cl", "measured": 0}
{"chemical_structure": "C=Cc1c(C)[nH]c(=O)c(C(=O)O)c1-c1ccc(Cl)c(Cl)c1", "measured": "1 (1=1-20%)"}
{"chemical_structure": "Cc1c(Br)c(-c2ccc(Cl)c(Cl)c2)c(C(=O)O)c(=O)n1-c1ccc(F)cc1F", "measured": "1 (1=1-20%)"}

Next:
Return percentage damage caused to the plant, AMARE measured with Amaranthus retoflexus (AMARE) given this compound: `Cc1c(Cl)c(-c2ccc(Cl)c(Cl)c2)c(C(=O)O)c(=O)n1Cc1ccc(F)cc1F` 3 (3=41-60%)

====

# System: Ipomoea hederacea (IPOHE)
# method_description: Pre-emergence test, herbicidal damage
# Format: in vivo
# Parameters: key: 5=81-100%; 4=61-80%; 3=41-60%; 2=21-40%; 1=1-20%; 0=no damage to the plant; -=not tested
# cond: 1000 g/ha unless otherwise stated, evaluated after 13 days, five-point scale
Each record here notes measured percentage damage caused to the plant, IPOHE.

Below are worked cases with known answers.
{"chemical_structure": "C=Cc1c(C)[nH]c(=O)c(C(=O)O)c1-c1ccc(Cl)c(Cl)c1", "tested_on": "Ipomoea hederacea (IPOHE)", "measured": 0}
{"chemical_structure": "Cc1[nH]c(=O)c(C(=O)O)c(-c2ccc(Cl)c(Cl)c2)c1C", "tested_on": "Ipomoea hederacea (IPOHE)", "measured": 0}
{"chemical_structure": "Cc1[nH]c(=O)c(C(=O)O)c(-c2ccc(Cl)c(Cl)c2)c1Cl", "tested_on": "Ipomoea hederacea (IPOHE)", "measured": 0}
{"chemical_structure": "Cc1c(Cl)c(-c2ccc(Cl)c(Cl)c2)c(C(=O)O)c(=O)n1Cc1ccc(C(F)(F)F)cc1F", "tested_on": "Ipomoea hederacea (IPOHE)", "measured": "1 (1=1-20%)"}
{"chemical_structure": "Cc1cc(-c2ccc(Cl)c(Cl)c2)c(C(=O)O)c(=O)n1Cc1ccc(Cl)cc1F", "tested_on": "Ipomoea hederacea (IPOHE)", "measured": 0}
{"chemical_structure": "Cc1cc(-c2ccc(Cl)c(Cl)c2)c(C(=O)O)c(=O)n1-c1ncc(Cl)cc1F", "tested_on": "Ipomoea hederacea (IPOHE)", "measured": 0}

I have this compound here, `Cc1cc(-c2ccc(Cl)c(Cl)c2)c(C(=O)O)c(=O)n1-c1ccc(F)cc1F` , and I need its recorded percentage damage caused to the plant, IPOHE. 0

I have this compound here, `Cc1cc(-c2ccc(Cl)c(Cl)c2)c(C(=O)O)c(=O)n1Cc1ccc(F)cc1F` , and I need its recorded percentage damage caused to the plant, IPOHE. 0

I have this compound here, `Cc1c(-c2ccc(Cl)c(Cl)c2)c(C(=O)O)c(=O)n(C)c1C` , and I need its recorded percentage damage caused to the plant, IPOHE. 0

I have this compound here, `C=Cc1c(-c2ccc(Cl)c(Cl)c2)c(C(=O)O)c(=O)n(-c2ccc(Cl)cc2F)c1C` , and I need its recorded percentage damage caused to the plant, IPOHE. 1 (1=1-20%)

I have this compound here, `CCc1c(-c2ccc(Cl)c(Cl)c2)c(C(=O)O)c(=O)n(-c2ccc(Cl)cc2F)c1C` , and I need its recorded percentage damage caused to the plant, IPOHE. 0

I have this compound here, `C=Cc1c(-c2ccc(Cl)c(Cl)c2)c(C(=O)O)c(=O)n(-c2ccc(F)cc2F)c1C` , and I need its recorded percentage damage caused to the plant, IPOHE. 0

FYI, the data here is from patent US20250289787A1.
